- assay summary: UV absorption in % at 300, 280 and 240 nm (Table 2)
- Format: physicochemical
- condition summary: 280 nm
property: UV Absorption in %, 280 nm (%)
Write the value in % as a bare number.

Example results:
>  <substance smiles>
Nc1ccc(C(=O)O)c(O)c1

>  <UV Absorption in %, 280 nm (%)>
99

$$$$
>  <substance smiles>
Nc1ncnc2c1ncn2[C@@H]1O[C@H](COP(=O)(O)O)[C@@H](O)[C@H]1O

>  <UV Absorption in %, 280 nm (%)>
8

$$$$

Now look at this entry.
Request: Request the reported UV Absorption in %, 280 nm associated with Nc1ccccc1C(=O)O
Response: 48

All values here come from patent US3937809A.
